- ASSAY COMMENT: TRM-201-PK-102 single-dose four-period crossover pharmacokinetic study, fasted healthy subjects
- Assay type: in vivo, human
- SETUP CONDITIONS: human, plasma, oral, 20 mg, 102 study, White subjects, read-out: arithmetic mean AUC0-∞
ATTRIBUTE MEASURED: AUC(0-inf) (ng·h/mL)
Give the number; ng·h/mL is assumed, so skip it.

Data request, read-out AUC(0-inf), for CS(=O)(=O)c1ccc(C2=C(c3ccccc3)C(=O)OC2)cc1 [TRM-201]
3850

---

- ASSAY COMMENT: TRM-201-PK-102 single-dose four-period crossover pharmacokinetic study, fasted healthy subjects
- Format: in vivo, human
- SETUP CONDITIONS: human, plasma, oral, 25 mg, 102 study, non-Hispanic or non-Latino subjects, read-out: arithmetic mean Cmax
ATTRIBUTE MEASURED: Cmax (ng/mL)
Give your result in ng/mL as a bare value.

Quick one: Cmax of CS(=O)(=O)c1ccc(C2=C(c3ccccc3)C(=O)OC2)cc1 ?
340
